hepatic extraction ratio listing for selected compounds.
- test: Metabolic stability in rat liver microsomes assessed as extraction ratio
- Format: ADME, Microsome
- setup conditions: read-out: ERH
A bare number is all that is needed in reply.

[
  {
    "smiles notation": "N#Cc1ccc(-c2c(-c3nnc[nH]3)sc(N3CCOCC3)c2C#N)c(F)c1",
    "hepatic extraction ratio": 0.529
  }
]

Attention now turns to another entry.
hepatic extraction ratio reported for this compound "N#Cc1c(N2CCOCC2)sc(-c2nnc[nH]2)c1-c1ccc(Cl)cc1Cl" : 0.89

----------
The following compounds have recorded Ki on Serine/threonine-protein kinase mTOR (Homo sapiens).
Give just the numeric value; nM need not be written.

[
  {
    "smiles notation": "N#Cc1ccc(-c2c(-c3nnc[nH]3)sc(N3CCOCC3)c2C#N)c(F)c1",
    "metric": "Ki",
    "obs value": 1440
  }
]

Recorded Ki for "N#Cc1c(N2CCOCC2)sc(-c2nc[nH]n2)c1-c1ccc(Cl)cc1" on Serine/threonine-protein kinase mTOR (Homo sapiens) was 434
